Target: TRIM54
Experiment: pooled miR-30 sensor sort-seq; sequence = guide strand; further: reference of the scale not given here
Settings: shRNA
Outcome: Condition met for sensor-assay potency score (higher = more potent) of at least -1; Condition not met for anything lower.

Consider the following illustrative entries.
> print(dat)
           chain.sequence              class
1  TTGTCCTCGATAGTCTGGCACA  Condition not met
2  TGGTTTGGAGAACATCTCCAGG  Condition not met
3  TTATTGATCAGCTCCTTGGCCT      Condition met
4  TTGGAGAACATCTCCAGGCAGA      Condition met
5  TCGCTGAGCTCACTCTTCTGGC      Condition met
6  TAGTCTGGCACACCTCCTCCAT  Condition not met
7  TTTGGAGAACATCTCCAGGCAG      Condition met
8  TTGCCTGCCACCAGCATCGCGA  Condition not met

Pending sequence:
Request: Hi, just wondering whether TCCATCTGTGTGATCACTGCTT shows sensor-assay potency score (higher = more potent) of -1 or higher.
Response: Condition met

----------
Target: TTC27
Experiment: pooled miR-30 sensor sort-seq; sequence = guide strand
Details: shRNA
Listed here are sequences together with their documented sensor-assay potency score (higher = more potent).
Respond numerically, and do not add a unit to the figure.

> print(dat)
           chain.sequence  measured.on  experimental.result
1  TATCCAACTGATCTTTTGCTTT        TTC27               -0.994
2  TTACTTTTTGTTTTAATCGGAT        TTC27               -0.347
3  TTCTTTTGAAAATTAGTGCAGA        TTC27               -0.195

Request: Please report the measured sensor-assay potency score (higher = more potent) for TACAGATGTATCTTTTACCAGC
Response: -0.789

Request: Report measured sensor-assay potency score (higher = more potent); entry is TTTTTCTCCAGCTCTTGTCTAA
Response: -0.459

Request: Quickly give me recorded sensor-assay potency score (higher = more potent) for TTCTAGAGTCACACAGCGCTGA
Response: 0.0912

Request: Return reported sensor-assay potency score (higher = more potent). Input sequence: TTGCTGAACCTTGATAGTCTTC
Response: -0.804

Request: Please list sensor-assay potency score (higher = more potent) recorded for the sequence TGAACCTTGATAGTCTTCCAAG
Response: -1.57

Request: Identify the reported sensor-assay potency score (higher = more potent) for the following entry. TTAAAAATCAATATCTTGCATT
Response: -0.512

Request: Please report sensor-assay potency score (higher = more potent) for the following sequence: TTTAAGGACCTGAACATCTTTG
Response: -0.304

----------
The reader will find reported sensor-assay potency score (higher = more potent) values listed item by item below.
Molecular target: ERICH1
Assay: pooled miR-30 sensor sort-seq; sequence = guide strand
Details: shRNA
The answer should be written as a number, with no unit following it.

> print(dat)
           chain.sequence  experimental.result
1  TTATGCTTCCTAATTCTTCTTC                0.311
2  TCTCTCAGTATCTTGCAGGAGC                -0.55
3  TTCTTTGATTTATGCTTCCTAA                -1.05
4  TTTATTTTTGCTTATTGTGGTG               -0.386
5  TTCATTGCTGCTGTCCTCGGGC               0.0342

Request: Respond only with sensor-assay potency score (higher = more potent) recorded for TTAACTTAACAGAATGTCCATT
Response: -0.597

Request: Indicate the recorded sensor-assay potency score (higher = more potent) value for this sequence: TTATTTTTGCTTATTGTGGTGC
Response: 0.19

Request: Fill in reported sensor-assay potency score (higher = more potent) for this entry: TATACATTTAACTTAACAGAAT
Response: -1.58

----------
Target: UBA1
Assay: pooled miR-30 sensor sort-seq; sequence = guide strand
Conditions: shRNA
Where sensor-assay potency score (higher = more potent) equals or exceeds 0.05, the correct label is rule met; where it does not, the label is rule not met.

Past entries and their recorded results:
> print(dat)
           chain.sequence         class
1  TTGGTGAGCACCACCACCTGGA      rule met
2  TTCTCTTGCAGGTCTGAGCCAA  rule not met
3  TTCTTAGGTACTTTGACCTGAC      rule met

Request: Is the recorded value of sensor-assay potency score (higher = more potent) equal to or greater than 0.05 for this sequence? TTTAACTTCGTGACATCCCAGG
Response: rule not met

Request: Decide: is the reported value of sensor-assay potency score (higher = more potent) for TTCTTGAGCAGCTCACAGCCAA equal to or greater than 0.05?
Response: rule not met

----------
Molecular target: GALNT14
Assay: pooled miR-30 sensor sort-seq; sequence = guide strand
Conditions: shRNA
Label rule, in plain words: sensor-assay potency score (higher = more potent) of -0.3 and up is true, under -0.3 is false.

Consider the worked cases shown below.
> print(dat)
           chain.sequence  measured.on  class
1  TCATCTCTCAATGTAGTCCTGG      GALNT14   true
2  TTTTGGTCCATTGCTGTCGGTC      GALNT14  false
3  AACAGCAGCACCGTGATCCAGA      GALNT14  false
4  TCTTTTGGAAACAACCTCCATT      GALNT14   true
5  TTGGTGTTCTTTATATACGTGT      GALNT14  false
6  TATGATAGGAGTCCTGATGGGC      GALNT14  false
7  TTGGAAACAACCTCCATTCTTC      GALNT14   true
8  ATTGCTGTCGGTCATCTCCATT      GALNT14  false

Attention now turns to another entry.
Request: Is reported sensor-assay potency score (higher = more potent) greater than or equal to -0.3 here: TTGTCGATCACGAAGAGCCCTC
Response: false

----------
Target: MAMSTR
Assay: pooled miR-30 sensor sort-seq; sequence = guide strand
Conditions: shRNA
QUANTITY_MEASURED: sensor-assay potency score (higher = more potent)
Returns: the value as a bare number; no unit string appended.

> print(dat)
           chain.sequence  experimental.result
1  TTAGGAAGCAACTGCGCCCTCC               -0.483
2  TGCTGGAGTCAGATAAGTCAGC                -1.36
3  TCCAGAGTCAGAGCCGCTGAGC                   -2

Request: Check the records and state sensor-assay potency score (higher = more potent) for TGGAGTCAGATAAGTCAGCGGA
Response: -0.63

----------
Biological target: SS18
Assay: pooled miR-30 sensor sort-seq; sequence = guide strand
Conditions: shRNA
QUANTITY_MEASURED: sensor-assay potency score (higher = more potent)
Enter a number only.

> print(dat)
           chain.sequence  experimental.result
1  TAGAATCTGCTATTGTAGCAAG               -0.645
2  TATTGTAGCAAGGTATACCAAG               -0.903
3  TTGTCATCTGATTCTGTACTGG                -0.29
4  TATTGTATTGCTGAGAAGGAGG                -1.18
5  TTTGTGTGCAACATCTGCTGAT                0.199

Request: # return sensor-assay potency score (higher = more potent) for ATTGTCATCCAACATCTTCTGA , test system: SS18
Response: -0.704

Request: Find the measured sensor-assay potency score (higher = more potent) of TTTCAGTCTGTAACAGTCCATT with SS18 as test system.
Response: -0.917

Request: Give the observed sensor-assay potency score (higher = more potent) of TTTATCTTTATAGCACACCATT for SS18.
Response: -1.15

Request: Check SS18 data and give sensor-assay potency score (higher = more potent) for TTGGTTAACTTGACCCATCATT .
Response: -0.57

----------
Biological target: ACRV1
Test: pooled miR-30 sensor sort-seq; sequence = guide strand
Details: shRNA
Each record here notes measured sensor-assay potency score (higher = more potent).
Form rule: numeric answer, no unit written next to it.

Before answering, review these 5 worked examples.
> print(dat)
           chain.sequence  experimental.result
1  TAATTTGCATCCTCGTTCCATG               -0.581
2  TCGACAGCATATAATTTGCATC                -1.21
3  TTGCATCCTCGTTCCATGGGAG               0.0526
4  TAATATTGTGCCTGAAGGCTGT               0.0194
5  TTTAACATGCACTGCTGGGAAT                -1.59

Request: Report sensor-assay potency score (higher = more potent), nothing else, for this sequence: TCTTTAACATGCACTGCTGGGA
Response: -0.397

Request: Identify the reported sensor-assay potency score (higher = more potent) for the following entry. ATTCATATAAGCACATGTGTAG
Response: -0.436

Request: Tell me measured sensor-assay potency score (higher = more potent) for TGAAGTTTGATGATCTATGGAG please.
Response: 0.139

Request: Give me measured sensor-assay potency score (higher = more potent), please, for this sequence: TTCTTTAACATGCACTGCTGGG
Response: -0.734

Request: Give the reported sensor-assay potency score (higher = more potent) for this sequence. TAGGCTGACTTGATGTTCCTCT
Response: 0.616
